Numbers sourced from the NIST ThermoML archive (doi:10.1016/j.fluid.2012.01.014).

Test: cn = amount concentration of the nth substance listed, in mol/dm3
Details: 313 K, Ring tensiometer, c1 = 0.000501
# if value of surface tension liquid-gas reaches 60 mN/m, tag satisfied; if it stays below, tag not satisfied

compound: CCCCCCCCCCCC[N+](C)(C)CC.[Br-] [dodecyl ethyl dimethylammonium bromide] + O
label value: satisfied
--
compound: CCCCCCCCCCCC[N+](C)(C)Cc1ccccc1.[Br-] [benzenemethanaminium, N-dodecyl-N,N-dimethyl, bromide] + O
label value: not satisfied
--
compound: CCCCCCCCCCCCN(C)CC(=O)[O-].[Na+] [sodium laurylsarcosinate] + O
label value: not satisfied
--
compound: CCCCCCCCCCCCCCCC[N+](C)(C)C.[Br-] [N,N,N-trimethyl-1-hexadecanaminium bromide] + O
label value: not satisfied

###

Experiment: cn = amount concentration of the nth substance listed, in mol/dm3
Conditions: 303 K, Ring tensiometer, c1 = 0.00398
measurement type: surface tension liquid-gas (mN/m)

molecule: CCCCCCCCCCCC[N+](C)(C)CC.[Br-] [dodecyl ethyl dimethylammonium bromide] + O
number: 52.36
//
molecule: CCCCCCCCCCCCCCCC[n+]1ccccc1.[Br-] [1-hexadecylpyridinium bromide] + O
number: 43.79
//
molecule: CCCCCCCCCCCCN(C)CC(=O)[O-].[Na+] [sodium laurylsarcosinate] + O
number: 26.65
//
molecule: CCCCCCCCCCCCOS(=O)(=O)[O-].[Na+] [sodium dodecyl sulfate] + O
number: 49.52
//
molecule: CCCCCCCCCCCC[N+](C)(C)Cc1ccccc1.[Br-] [benzenemethanaminium, N-dodecyl-N,N-dimethyl, bromide] + O
number: 34.82

###

Assay: cn = amount concentration of the nth substance listed, in mol/dm3
Conditions: 293 K, Ring tensiometer, c1 = 0.000631
Numbers after ± are expanded uncertainties.
measurement type: surface tension liquid-gas

molecule: CCCCCCCCCCCCN(C)CC(=O)[O-].[Na+] [sodium laurylsarcosinate] + O
result: 46.3 ± 1.1 mN/m
//
molecule: CCCCCCCCCCCCOS(=O)(=O)[O-].[Na+] [sodium dodecyl sulfate] + O
result: 68.1 ± 1.3 mN/m
//
molecule: CCCCCCCCCCCCCCCC[n+]1ccccc1.[Br-] [1-hexadecylpyridinium bromide] + O
result: 44.8 ± 1.1 mN/m
//
molecule: CCCCCCCCCCCCCC[N+](C)(C)C.[Br-] [tetradecyltrimethylammonium bromide] + O
result: 56.1 ± 1.2 mN/m

###

Experiment: cn = amount concentration of the nth substance listed, in mol/dm3
Settings: 293 K, Ring tensiometer, c1 = 0.002
Below, each entry is listed with its recorded surface tension liquid-gas.
measurement type: surface tension liquid-gas (mN/m)

compound: CCCCCCCCCCCCN(C)CC(=O)[O-].[Na+] [sodium laurylsarcosinate] + O
number: 32.9

compound: CCCCCCCCCCCCCCCC[N+](C)(C)C.[Br-] [N,N,N-trimethyl-1-hexadecanaminium bromide] + O
number: 37.8

compound: CCCCCCCCCCCC[N+](C)(C)CC.[Br-] [dodecyl ethyl dimethylammonium bromide] + O
number: 60.3

compound: CCCCCCCCCCCCOS(=O)(=O)[O-].[Na+] [sodium dodecyl sulfate] + O
number: 57.43

compound: CCCCCCCCCCCCCCCC[n+]1ccccc1.[Br-] [1-hexadecylpyridinium bromide] + O
number: 44

compound: CCCCCCCCCCCC[N+](C)(C)Cc1ccccc1.[Br-] [benzenemethanaminium, N-dodecyl-N,N-dimethyl, bromide] + O
number: 41.1

compound: CCCCCCCCCCCCCC[N+](C)(C)C.[Br-] [tetradecyltrimethylammonium bromide] + O
number: 43.7
